- test-method-notes: Selectivity for 5-hydroxytryptamine 1A and sigma receptors
- Design: reference not given here
property-name: Selectivity

[a] COc1cccc2c1CCCC2CCCNCCNc1ccccc1 (centres undefined)
[b] c1ccc2c(c1)CCCC2CCCN1CCN(C2=NCCCC2)CC1 (centres undefined)
[c] COc1ccc2c(c1)C(CCCN1CCN(C3=NCCCC3)CC1)CCC2 (centres undefined)
Exercise: Falling order of Selectivity, please. Field: ranking. Enter the labels in the order requested.
Solution: c, b, a
